Source of measurements: patent US20110040086A1

# System: S. aureus 526
# ASSAY: agar diffusion test (Test System II, multi-resistant germs)
# Assay type: cell-based, Staphylococcus aureus
# Design: key: r = resistant (no detectable zone of inhibition)
# CONDITION PARAMETERS: Quantity n 0.019
REPORTED METRIC: Diameter of zone of inhibition

CCOC(=O)C1=C(NC(C(=O)NC2C(=O)N3C(C(=O)O)=C(Cl)CSC23)c2ccccc2)C(=O)C=CC1=O (stereo not shown)
r
N[C@@H](C(=O)N[C@@H]1C(=O)N2C(C(=O)O)=C(Cl)CS[C@H]12)c1ccccc1 [2c, Cefaclor, reference compound]
r
CC1=C(C(=O)O)N2C(=O)[C@@H](NC(=O)[C@H](N)c3ccc(O)cc3)[C@H]2SC1 [2a, Cefadroxil, reference compound]
r
COC(=O)C1=C(NC(C(=O)NC2C(=O)N3C(C(=O)O)=C(C)CSC23)c2ccc(O)cc2)C(=O)C=CC1=O (stereo not shown)
r
